Molecular target: dipeptidyl peptidase IV (Rattus norvegicus)
Construct: from tissue; host or cells: SD rat blood plasma
Sequence (P14740 37-767 limits assumed): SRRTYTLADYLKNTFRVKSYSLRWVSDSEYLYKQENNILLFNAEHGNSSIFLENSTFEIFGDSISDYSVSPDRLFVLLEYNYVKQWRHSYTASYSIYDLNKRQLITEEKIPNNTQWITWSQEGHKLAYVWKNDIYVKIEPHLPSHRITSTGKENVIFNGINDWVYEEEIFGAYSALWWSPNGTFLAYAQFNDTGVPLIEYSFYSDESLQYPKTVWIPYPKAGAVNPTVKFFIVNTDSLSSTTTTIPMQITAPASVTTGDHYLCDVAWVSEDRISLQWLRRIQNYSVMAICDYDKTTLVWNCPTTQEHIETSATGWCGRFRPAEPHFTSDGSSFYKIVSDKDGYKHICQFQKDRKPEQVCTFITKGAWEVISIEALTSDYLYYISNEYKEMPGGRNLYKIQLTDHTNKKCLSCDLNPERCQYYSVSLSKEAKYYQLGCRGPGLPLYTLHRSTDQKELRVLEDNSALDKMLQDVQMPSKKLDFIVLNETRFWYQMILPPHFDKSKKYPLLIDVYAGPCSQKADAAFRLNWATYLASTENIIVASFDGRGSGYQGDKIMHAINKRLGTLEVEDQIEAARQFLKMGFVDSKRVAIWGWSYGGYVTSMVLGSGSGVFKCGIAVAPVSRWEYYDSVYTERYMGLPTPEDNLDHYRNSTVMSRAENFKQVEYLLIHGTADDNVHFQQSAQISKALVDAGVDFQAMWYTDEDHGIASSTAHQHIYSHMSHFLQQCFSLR
Experiment: Determination of dipeptidyl peptidase IV inhibitory activity in rat plasma (Experimental Example 1)
Type: biochemical
Conditions: plasma of SD rat, substrate Gly-Pro-p-NA, 30° C., absorbance 405 nm after 1 hr; Table 5
Items are presented alongside their recorded IC50.

[
  {
    "Compound": "CCc1nc(CC(C)C)c(CN)c(-c2ccc(C)cc2)c1CC(=O)O [Example 1]",
    "Subject of test": "dipeptidyl peptidase IV (Rattus norvegicus)",
    "IC50, nM": 33
  },
  {
    "Compound": "Cc1ccc(-c2c(CN)c(CC(C)C)nc(CC(C)C)c2CC(=O)N2CCC(S(C)(=O)=O)C2)cc1 (stereo not drawn) [Example 10, ditrifluoroacetate]",
    "Subject of test": "dipeptidyl peptidase IV (Rattus norvegicus)",
    "IC50, nM": 0.85
  },
  {
    "Compound": "CCc1nc(CC(C)(C)C)c(CN)c(-c2ccc(C)cc2)c1CC(=O)Nc1ccc(C(C)=O)cc1 [Example 80]",
    "Subject of test": "dipeptidyl peptidase IV (Rattus norvegicus)",
    "IC50, nM": 11
  },
  {
    "Compound": "Cc1ccc(-c2c(CN)c(CC(C)C)nc(CC(C)C)c2CC(=O)N2C[C@@H](C)O[C@@H](C)C2)cc1 [Example 20]",
    "Subject of test": "dipeptidyl peptidase IV (Rattus norvegicus)",
    "IC50, nM": 8.4
  },
  {
    "Compound": "CC(=O)N1CCN(C(=O)Cc2c(CC(C)C)nc(CC(C)C)c(CN)c2-c2ccc(C)cc2)CC1 [Example 47]",
    "Subject of test": "dipeptidyl peptidase IV (Rattus norvegicus)",
    "IC50, nM": 4.8
  },
  {
    "Compound": "CCc1nc(CC(C)(C)C)c(CN)c(-c2ccc(C)cc2)c1CC(=O)N1CCN(C(C)=O)CC1 [Example 89]",
    "Subject of test": "dipeptidyl peptidase IV (Rattus norvegicus)",
    "IC50, nM": 3.6
  },
  {
    "Compound": "Cc1ccc(-c2c(CN)c(CC(C)C)nc(CC(C)C)c2CC(=O)N2CCC[C@H]2C(N)=O)cc1 [Example 45]",
    "Subject of test": "dipeptidyl peptidase IV (Rattus norvegicus)",
    "IC50, nM": 2
  },
  {
    "Compound": "CCc1nc(CC(C)(C)C)c(CN)c(-c2ccc(C)cc2)c1CC(=O)N1CCC[C@H]1C(N)=O [Example 87]",
    "Subject of test": "dipeptidyl peptidase IV (Rattus norvegicus)",
    "IC50, nM": 0.32
  },
  {
    "Compound": "CCc1nc(CC(C)(C)C)c(CN)c(-c2ccc(C)cc2)c1CC(=O)N1C[C@@H](C)O[C@@H](C)C1 [Example 64]",
    "Subject of test": "dipeptidyl peptidase IV (Rattus norvegicus)",
    "IC50, nM": 1.7
  }
]
